# measurement_target: T1, recombinant biotinylated CD71 extracellular domain (Sino Biologics) with an N-terminal 6His tag (human, UniProt P02786 89-760, biotinylated (sites not given))
# T1 construct: extracellular domain; also called hCD71; huCD71
# T1 sequence (P02786 other isoform, or with tags, fused parts or gaps): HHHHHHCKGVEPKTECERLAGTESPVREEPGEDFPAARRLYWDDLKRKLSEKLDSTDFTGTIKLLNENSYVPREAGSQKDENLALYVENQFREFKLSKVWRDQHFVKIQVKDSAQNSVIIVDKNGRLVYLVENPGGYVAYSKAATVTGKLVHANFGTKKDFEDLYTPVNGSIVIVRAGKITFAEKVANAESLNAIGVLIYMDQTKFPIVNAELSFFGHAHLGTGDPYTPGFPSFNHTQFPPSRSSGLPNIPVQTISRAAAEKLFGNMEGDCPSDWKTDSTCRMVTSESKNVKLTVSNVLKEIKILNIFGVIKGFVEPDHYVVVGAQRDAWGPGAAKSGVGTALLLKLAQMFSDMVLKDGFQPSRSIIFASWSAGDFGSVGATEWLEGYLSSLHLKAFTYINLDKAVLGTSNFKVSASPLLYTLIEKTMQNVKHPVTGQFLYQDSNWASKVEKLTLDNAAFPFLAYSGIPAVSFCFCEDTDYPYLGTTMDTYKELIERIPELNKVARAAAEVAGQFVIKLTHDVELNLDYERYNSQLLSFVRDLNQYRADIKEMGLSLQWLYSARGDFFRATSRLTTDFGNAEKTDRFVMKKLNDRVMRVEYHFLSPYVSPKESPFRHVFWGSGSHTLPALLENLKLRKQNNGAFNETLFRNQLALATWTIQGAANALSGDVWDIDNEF
# protocol_description: screening ELISA
Exercise: state measured hCD71 for each of the binders provided.
I'd appreciate a reply containing only the number, no unit.

-- ask Read the entry SEQ ID NO 257 (designed binder, FN3 domain) MLPAPKNLVVSRVTEDSARLSWTAPDAAFDSFHIVYHEPRPSGEAIVLTVPGSERSYDLTGLKPGTEYEVGIVSVKGGDLSVPLSAIFTT and write its reported hCD71.
-- reply 2.37e+06

-- ask Tell me hCD71 reported for SEQ ID NO 128 (designed binder, FN3 domain) MLPAPKNLVVSRVTEDSARLSWTAPDAAFDSFIINYIEIVQYGEAIVLTVPGSERSYDLTGLKPGTEYPESIWGVKGGGASSPLSAIFTT
-- reply 664000
